Numbers sourced from ChEMBL document CHEMBL1961873.

# Study target: Serine/threonine-protein kinase B-raf (Homo sapiens);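 also: reported value is the mean percent inhibition of BRAF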
# Settings: at 1 µM
Parameter: inhibition (%)
// note: answer is a bare numeric in %

State the recorded inhibition for this entry: CN(c1ccc(NC(=O)NCCN2CCOCC2)cc1)c1ccnc(Nc2ccc(CS(C)(=O)=O)cc2)n1
7.4

// repeat for Fc1ccc(Nc2nccc(-c3c(-c4ccc(C(F)(F)F)cc4)nn4ncccc34)n2)cc1F and report
6.75

// repeat for NC(=O)c1ccc2c(-c3ccnc(NCCCO)n3)c(-c3ccc(F)cc3)nn2c1 and report
22.2

// repeat for CNC(=O)c1cncc(/C=C/c2ccccc2C)c1 and report
7.91

---

# Study target: Mitogen-activated protein kinase 13 (Homo sapiens);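 also: reported value is the mean percent inhibition of p38delta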
# Settings: at 0.1 µM
Parameter: inhibition (%)
// note: answer is a bare numeric in %

State the recorded inhibition for this entry: CC1(C)CC(n2cnc(-c3ccc(F)cc3)c2-c2ccnc(N)n2)CC(C)(C)N1
1.83

// repeat for N#Cc1cccc(Nc2ncc(-c3ccccc3)o2)c1 and report
-0.16

// repeat for COc1ccc(-c2nn3ncccc3c2-c2ccnc(Nc3ccc(F)c(F)c3)n2)cc1 and report
0.5

// repeat for O=C1Nc2ccccc2/C1=C1\CCc2cc(O)ccc21 and report
3.43

// repeat for Cc1cc(O)cc(C)c1/C=C/c1cncc(C(=O)OC(C)(C)C)c1 and report
2.17

// repeat for O=C(O[C@H]1CN[C@H](C#Cc2cc3ncnc(Nc4ccc5c(ccn5Cc5cc(F)ccc5F)c4)c3s2)C1)N1CCOCC1 and report
2.39

// repeat for CCS(=O)(=O)c1ccc(OC)c(Nc2ncc(-c3cccc(F)c3)o2)c1 and report
5.58

// repeat for COC(=O)Nc1nc2cc(Oc3ccc(NC(=O)Nc4ccccc4)cc3)ccc2[nH]1 and report
-0.27

// repeat for COc1cc(Nc2ncc(-c3ccccc3)o2)cc(OC)c1 and report
5.24

// repeat for c1ccc(-c2n[nH]cc2-c2ccnc(-c3ccc(OCCn4ccnc4)cc3)c2)nc1 and report
0.51

// repeat for c1cnn2ncc(-c3ccnc(NCCCN4CCOCC4)n3)c2c1 and report
-1.15

// repeat for CS(=O)(=O)CCNCc1ccc(-c2ccc3ncnc(Nc4ccc(OCc5cccc(C(F)(F)F)c5)cc4)c3c2)o1 and report
5.4

---

# Study target: Sphingosine kinase 2 (Homo sapiens);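 also: values reported as mean percent inhibition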
# Sequence (whole entry): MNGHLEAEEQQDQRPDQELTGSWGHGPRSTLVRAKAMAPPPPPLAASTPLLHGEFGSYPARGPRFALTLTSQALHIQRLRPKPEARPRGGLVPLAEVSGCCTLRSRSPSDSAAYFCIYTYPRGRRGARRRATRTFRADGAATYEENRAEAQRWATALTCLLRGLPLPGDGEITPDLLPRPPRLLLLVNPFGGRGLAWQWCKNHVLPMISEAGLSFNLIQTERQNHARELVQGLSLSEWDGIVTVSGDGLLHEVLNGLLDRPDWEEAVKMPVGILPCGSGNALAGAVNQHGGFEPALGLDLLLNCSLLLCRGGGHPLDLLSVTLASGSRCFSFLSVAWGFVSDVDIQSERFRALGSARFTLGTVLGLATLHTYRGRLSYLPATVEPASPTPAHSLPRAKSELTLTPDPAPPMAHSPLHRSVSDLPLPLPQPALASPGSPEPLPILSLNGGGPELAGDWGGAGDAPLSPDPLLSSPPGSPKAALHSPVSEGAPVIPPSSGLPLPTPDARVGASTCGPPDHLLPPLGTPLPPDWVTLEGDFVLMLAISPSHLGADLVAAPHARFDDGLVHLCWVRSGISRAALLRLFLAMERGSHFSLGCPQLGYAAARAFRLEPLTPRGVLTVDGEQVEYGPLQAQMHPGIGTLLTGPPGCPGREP
# Settings: at 0.1 µM
Parameter: inhibition (%)
// note: answer is a bare numeric in %

State the recorded inhibition for this entry: COc1cc(Nc2ncc(-c3ccccc3)o2)cc(OC)c1
-0.24

// repeat for CS(=O)(=O)CCNCc1ccoc1-c1ccc2ncnc(Nc3ccc(OCc4ccccc4)cc3)c2c1 and report
1.37

// repeat for OCCCNc1nccc(-c2c(-c3ccc(F)cc3)nn3cc(C(F)(F)F)ccc23)n1 and report
1.62

// repeat for COc1ccccc1-c1cc(/C=C2\C(=O)Nc3ncc(Br)cc32)cc(Br)c1O and report
2.31

// repeat for COc1ccc(Nc2ncc(-c3ccccc3)o2)cc1OC and report
-0.42

// repeat for Cc1c2ccc(N(C)c3ccnc(Nc4cccc(S(N)(=O)=O)c4)n3)cc2nn1C and report
-0.17

// repeat for CN(c1ccc(NC(=O)NCCN2CCOCC2)cc1)c1ccnc(Nc2ccc(CS(C)(=O)=O)cc2)n1 and report
0.36

// repeat for Cc1ccc(-c2cc3c(NC(=O)C4CC4)ncnc3o2)cc1 and report
-0.23

// repeat for O=C(O[C@H]1CN[C@H](C#Cc2cc3ncnc(Nc4ccc5c(ccn5Cc5cc(F)ccc5F)c4)c3s2)C1)N1CCOCC1 and report
0

// repeat for FC(F)(F)CNc1nccc(-c2cnn3ncccc23)n1 and report
-1.21

// repeat for CS(=O)(=O)Nc1ccc(-c2ccc3c(NC(=O)C4CC4)n[nH]c3c2)cc1 and report
1.2

// repeat for CNC(=O)c1ncccc1Nc1nc(Nc2cc3c(cc2OC)CCCN3C(=O)CN(C)C)nc2[nH]ccc12 and report
-0.11

// repeat for O=C(O[C@H]1CN[C@H](C#Cc2cc3ncnc(Nc4ccc(OCc5cccc(F)c5)c(Cl)c4)c3s2)C1)N1CCOCC1 and report
0.46

---

# Study target: Ribosomal protein S6 kinase alpha-1 (Homo sapiens) (UniProt Q15418);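 also: values are mean percent inhibition of RSK1 measured in the GSK PKIS kinase inhibitor set screen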
# Sequence (Q15418 whole entry): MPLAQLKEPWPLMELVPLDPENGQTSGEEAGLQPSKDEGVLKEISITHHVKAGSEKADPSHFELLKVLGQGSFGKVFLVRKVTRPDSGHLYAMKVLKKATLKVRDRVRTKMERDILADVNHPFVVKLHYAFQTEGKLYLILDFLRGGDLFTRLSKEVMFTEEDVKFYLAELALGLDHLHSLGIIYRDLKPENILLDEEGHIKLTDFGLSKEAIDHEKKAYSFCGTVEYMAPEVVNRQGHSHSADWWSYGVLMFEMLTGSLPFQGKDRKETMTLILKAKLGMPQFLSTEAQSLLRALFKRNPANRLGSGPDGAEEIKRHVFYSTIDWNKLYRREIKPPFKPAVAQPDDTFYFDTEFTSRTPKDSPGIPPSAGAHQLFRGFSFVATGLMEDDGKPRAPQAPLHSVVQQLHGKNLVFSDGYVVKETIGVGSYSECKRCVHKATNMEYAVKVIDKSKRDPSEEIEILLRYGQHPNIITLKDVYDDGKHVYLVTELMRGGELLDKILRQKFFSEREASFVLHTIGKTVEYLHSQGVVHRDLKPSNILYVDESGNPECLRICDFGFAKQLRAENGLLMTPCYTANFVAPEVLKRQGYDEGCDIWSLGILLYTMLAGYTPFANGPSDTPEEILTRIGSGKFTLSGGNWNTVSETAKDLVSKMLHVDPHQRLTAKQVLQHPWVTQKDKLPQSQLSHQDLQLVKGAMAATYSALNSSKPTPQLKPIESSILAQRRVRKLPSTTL
# Settings: at 0.1 µM
Parameter: inhibition (%)
// note: answer is a bare numeric in %

State the recorded inhibition for this entry: CCN1CCC(C(=O)Nc2n[nH]c3nnc(-c4cccc(F)c4F)cc23)CC1
0.15

// repeat for Cn1c(-c2nonc2N)nc2cnccc21 and report
9.65

// repeat for NC(=O)c1ccc2c(-c3ccnc(NCCCO)n3)c(-c3ccc(F)cc3)nn2c1 and report
3.69

// repeat for Cc1cc(O)cc(C)c1/C=C/c1cncc(C(N)=O)c1 and report
0.33

// repeat for N#Cc1ccc2c(-c3ccnc(NC4CC4)n3)c(-c3ccc(F)cc3)nn2c1 and report
0.57

---

# Study target: Receptor tyrosine-protein kinase erbB-2 (Homo sapiens)
# Settings: at 1 µM
# Description: GSK_PKIS: ERBB2 mean inhibition at 1 uM [Nanosyn]
Parameter: inhibition
Answer by giving the amount and then stating its unit.

State the recorded inhibition for this entry: Cc1c2ccc(N(C)c3ccnc(Nc4cccc(S(N)(=O)=O)c4)n3)cc2nn1C
-3.44%

// repeat for COC(=O)Nc1nc2cc(Oc3ccc(NC(=O)Nc4ccccc4)cc3)ccc2[nH]1 and report
3.12%

// repeat for Cc1nnc(-c2cccc(-c3ccc(C(=O)NCC4CC4)cc3)c2)o1 and report
5.51%

// repeat for CCOc1ccc2c(-c3ccnc(Nc4cc(OC)cc(C(F)(F)F)c4)n3)cnn2n1 and report
2.46%

// repeat for CN(C)CCNC(=O)Nc1ccc(N(C)c2ccnc(Nc3ccc(CS(C)(=O)=O)cc3)n2)cc1 and report
-0.72%

// repeat for Cc1ccc(-c2cc3c(NC(=O)C4CC4)ncnc3o2)cc1 and report
-0.45%

// repeat for O=C(O[C@H]1CN[C@H](C#Cc2cc3ncnc(Nc4ccc5c(cnn5Cc5ccccc5)c4)c3s2)C1)N1CCOCC1 and report
48.3%

// repeat for NS(=O)(=O)c1ccc(N/N=C2\C(=O)Nc3cccc(CCc4ccncc4)c32)cc1 and report
3.74%

// repeat for NS(=O)(=O)c1ccc(N/N=C2\C(=O)Nc3ccc(C(=O)NCc4ccncc4)cc32)cc1 and report
6.09%

---

# Study target: Tyrosine-protein kinase ZAP-70 (Homo sapiens);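 also: values are mean percent inhibition of ZAP-70 kinase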
# Settings: at 0.1 µM
Parameter: inhibition (%)
// note: answer is a bare numeric in %

State the recorded inhibition for this entry: COc1c(C(N)=O)cc(-c2ccc(Cl)cc2)cc1-c1ccc(S(N)(=O)=O)cc1
2.39

// repeat for Fc1cccc(COc2ccc(Nc3ncncc3C#Cc3ccccc3)cc2Cl)c1 and report
2.29

// repeat for Cn1c(-c2nonc2N)nc2cnccc21 and report
3.27

---

# Study target: Non-receptor tyrosine-protein kinase TYK2 (Homo sapiens);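 also: values are mean percent inhibition of TYK2 kinase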
# Settings: at 1 µM
Parameter: inhibition (%)
// note: answer is a bare numeric in %

State the recorded inhibition for this entry: O=C(Nc1n[nH]c2nnc(-c3cccnc3)cc12)C1CC1
2.04

// repeat for COc1ccc2ncn(-c3cc(O[C@H](C)c4ccccc4C(F)(F)F)c(C(N)=O)s3)c2c1 and report
-1.84

// repeat for CCn1c(-c2nonc2N)nc2cncc(C(=O)NCCNC)c21 and report
-3.99

// repeat for O=C(O[C@H]1CN[C@H](C#Cc2cc3ncnc(Nc4ccc5c(cnn5Cc5ccccc5)c4)c3s2)C1)N1CCOCC1 and report
1.01

---

Could you please report measured inhibition for the items listed next?
# Study target: Ephrin type-A receptor 2 (Homo sapiens) (UniProt P29317)
# Sequence (P29317 whole entry): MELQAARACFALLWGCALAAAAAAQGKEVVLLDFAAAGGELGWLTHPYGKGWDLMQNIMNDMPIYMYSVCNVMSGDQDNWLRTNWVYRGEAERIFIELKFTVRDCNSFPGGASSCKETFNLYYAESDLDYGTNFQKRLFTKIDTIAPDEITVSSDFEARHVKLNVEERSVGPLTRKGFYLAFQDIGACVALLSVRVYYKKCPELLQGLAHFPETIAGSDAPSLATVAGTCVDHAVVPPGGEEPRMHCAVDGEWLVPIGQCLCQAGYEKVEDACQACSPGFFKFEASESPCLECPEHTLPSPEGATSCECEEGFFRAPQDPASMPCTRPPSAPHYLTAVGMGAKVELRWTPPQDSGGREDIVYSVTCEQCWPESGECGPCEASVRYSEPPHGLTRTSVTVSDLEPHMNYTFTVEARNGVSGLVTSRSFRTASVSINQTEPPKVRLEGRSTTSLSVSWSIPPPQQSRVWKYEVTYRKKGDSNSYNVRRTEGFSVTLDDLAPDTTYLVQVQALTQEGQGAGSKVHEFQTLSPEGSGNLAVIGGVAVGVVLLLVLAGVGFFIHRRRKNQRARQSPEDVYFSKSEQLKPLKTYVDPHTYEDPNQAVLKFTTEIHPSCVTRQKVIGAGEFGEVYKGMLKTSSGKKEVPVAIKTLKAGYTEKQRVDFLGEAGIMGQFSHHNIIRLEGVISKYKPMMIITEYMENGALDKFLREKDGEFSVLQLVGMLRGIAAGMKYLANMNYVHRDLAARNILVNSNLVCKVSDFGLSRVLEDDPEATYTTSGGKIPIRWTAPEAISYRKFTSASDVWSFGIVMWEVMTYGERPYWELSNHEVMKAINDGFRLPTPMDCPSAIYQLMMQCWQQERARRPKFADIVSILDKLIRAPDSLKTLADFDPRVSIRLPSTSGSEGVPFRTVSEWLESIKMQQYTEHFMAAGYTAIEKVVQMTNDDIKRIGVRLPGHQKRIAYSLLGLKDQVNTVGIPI
# Settings: at 0.1 µM
// note: answer is a bare numeric in %

API: value(readout= inhibition, system= Ephrin type-A receptor 2 (Homo sapiens) (UniProt P29317), query= NS(=O)(=O)c1ccc(N/N=C2\C(=O)Nc3cccc(CCc4ccncc4)c32)cc1 );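 also: reported values are mean percent inhibition of EPHA2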
-2.9

// repeat for CC1(C)CC(n2cnc(-c3ccc(F)cc3)c2-c2ccnc(N)n2)CC(C)(C)N1 and report
-2.86

// repeat for CN(c1ccc(NC(=O)NCCN2CCOCC2)cc1)c1ccnc(Nc2ccc(CS(C)(=O)=O)cc2)n1 and report
2.23

// repeat for CCCNc1cccc(-n2ncc3c(N/N=C/c4ccncc4)ncnc32)c1 and report
3.57
